system: HPK1; details: concentration: 1 μM, replicates: in singlicate; n = 1;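 also: KINOMEscan kinase panel screen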
Below, each entry is listed alongside its reported %Inh.
Entry rule: numbers only, all in %.

INPUT: Please tell me: %Inh of `O=C(O)COc1ncnc2cc(-c3ccc4[nH]ncc4c3)sc12` , system HPK1?
OUTPUT: 7

INPUT: Please tell me: %Inh of COc1ccc(CNC(=O)NC2CCN(c3ccnc(Nc4cc(OC)c(OC)c(OC)c4)n3)C2)cc1 (stereo not shown) , system HPK1?
OUTPUT: 53

INPUT: Please tell me: %Inh of `Cc1ccc(-c2cc(-c3c[nH]nc3-c3ccccn3)ccn2)cc1` , system HPK1?
OUTPUT: 24

INPUT: Please tell me: %Inh of `Cc1ccc(NC(=O)Nc2cc(C(C)(C)C)nn2-c2ccccc2)cc1` , system HPK1?
OUTPUT: 25

INPUT: Please tell me: %Inh of `Fc1cc(Cl)ccc1Nc1ccnc2cc(I)ccc12` , system HPK1?
OUTPUT: 35

More entries:
INPUT: Please tell me: %Inh of `Clc1cc(Cl)cc(Nc2ccnc(Nc3cc(Cl)cc(Cl)c3)n2)c1` , system HPK1?
OUTPUT: 38

INPUT: Please tell me: %Inh of `O=C(Nc1ccccc1)Nc1cccc(Oc2ccc3nccn3n2)c1` , system HPK1?
OUTPUT: 33

INPUT: Please tell me: %Inh of `COc1cc2nccc(Nc3ccc(NC(=O)c4ccc(C)cc4)c(O)c3)c2cc1OC.Cl` , system HPK1?
OUTPUT: 24

INPUT: Please tell me: %Inh of `CCn1c(-c2cccnc2O)nc2cnccc21` , system HPK1?
OUTPUT: 4

INPUT: Please tell me: %Inh of `O=C1NC(=O)C(N2CCc3ccccc32)=C1c1ccccc1Cl` , system HPK1?
OUTPUT: 0

INPUT: Please tell me: %Inh of `Cl.c1ccc(-c2n[nH]cc2-c2ccnc(-c3ccc(CN4CCOCC4)cc3)c2)nc1` , system HPK1?
OUTPUT: 64

INPUT: Please tell me: %Inh of `Cn1ccc2ncnc(Oc3cccc(C(=O)Nc4ccccc4)c3)c21` , system HPK1?
OUTPUT: 2

INPUT: Please tell me: %Inh of `Cn1ccc2ncnc(Oc3ccc(NC(=O)Nc4ccccc4)cc3)c21` , system HPK1?
OUTPUT: 0

INPUT: Please tell me: %Inh of `Cc1ccc(NC(=O)Nc2cccc(Cl)c2)cc1-c1ccc(C(=O)Nc2ccncc2)cc1` , system HPK1?
OUTPUT: 40

INPUT: Please tell me: %Inh of CC1=C(C(=O)Nc2cc3cn[nH]c3cc2F)C(c2ccc(C(F)(F)F)cc2)CC(=O)N1 (stereo not shown) , system HPK1?
OUTPUT: 29

INPUT: Please tell me: %Inh of `Cc1c(O)cccc1Nc1ccnc2ccc(C(F)(F)F)cc12.Cl` , system HPK1?
OUTPUT: 3

---

tested on: RSK1(Kin.Dom.1-N-terminal); construct: gene RPS6KA1; conditions: concentration: 1 μM, replicates: in singlicate; n = 1
Below, each entry is listed alongside its reported %Inh.
Entry rule: numbers only, all in %.

INPUT: So what does the record say about %Inh for `Cc1cccc(-c2cc(Nc3ccncc3)c3ccccc3n2)n1` ?
OUTPUT: 30

INPUT: So what does the record say about %Inh for `COc1ccccc1CNC(=O)c1cc(C(=O)c2ccccc2C)c[nH]1` ?
OUTPUT: 25

INPUT: So what does the record say about %Inh for `Cc1ccc(NC(=O)Nc2cccc(Cl)c2)cc1-c1ccc(C(=O)Nc2ccncc2)cc1` ?
OUTPUT: 23

INPUT: So what does the record say about %Inh for O=C(Nc1ccc2c(c1)OCO2)NC1CCN(c2ccnc(Nc3ccc(F)cc3)n2)C1 (stereo not shown) ?
OUTPUT: 11
